# Tested on: ADRRES (Ovary)
# test.name: SRB assay, ADRRES (multidrug resistant NCI-ADR-RES)
# Format: cell-based, human
# condition: Homo sapiens, NCI/ADR-RES; ADRRES, SRB, 48 h
GI50 less than 300 nM is yes (1); GI50 greater than or equal to 300 nM is no (0).

compound	label.class
C[C@]12CCC(=NOCCN)CC1CCC1C2CC[C@]2(C)C(=O)CCC12 (stereo partly shown) [Compound 1]	no (0)
CC(=O)O[C@H]1C(=O)[C@@]2(C)[C@H]([C@H](OC(=O)c3ccccc3)[C@]3(O)C[C@H](OC(=O)[C@H](O)[C@@H](NC(=O)c4ccccc4)c4ccccc4)C(C)=C1C3(C)C)[C@]1(OC(C)=O)CO[C@@H]1C[C@@H]2O [Paclitaxel, reference compound]	no (0)
C[C@]12CCC(=NOC3CCNC3)C=C1CCC1C2CC[C@]2(C)C(=O)CCC12 (stereo partly shown) [Compound 61]	no (0)
C[C@]12CCC(=NOCCN)C=C1CCC1C2CC[C@@]2(C)C1CC[C@@H]2O (stereo partly shown) [Compound 120]	no (0)
C[C@]12CCC(=NOC3CCNC3)CC1CCC1C2CC[C@]2(C)C(=O)CCC12 (stereo partly shown) [Compound 56]	yes (1)
C[C@H]1O[C@@H](O[C@H]2[C@@H](O)C[C@H](O[C@H]3[C@@H](O)C[C@H](O[C@H]4CC[C@@]5(C)[C@H](CC[C@@H]6[C@@H]5C[C@@H](O)[C@]5(C)[C@@H](C7=CC(=O)OC7)CC[C@]65O)C4)O[C@@H]3C)O[C@@H]2C)C[C@H](O)[C@@H]1O [Digoxin, reference compound]	yes (1)

# evaluate next
Say whether its GI50 is strictly beneath 300 nM. Entry: C[C@]12CCC(=NOCCN)C=C1CCC1C2CC[C@]2(C)C(=O)CCC12 (stereo partly shown) [Compound 12]
no (0)

---

# Test system: HCT116 (Colon)
# test.name: SRB assay, HCT116
# Assay type: cell-based
# condition: Homo sapiens, HCT-116, 48 h, read-out: LC50
CC50 less than 9 µM is Satisfied; CC50 greater than or equal to 9 µM is Not satisfied.

Answered cases to consult:
compound	label.class
CC(=O)O[C@H]1C(=O)[C@@]2(C)[C@H]([C@H](OC(=O)c3ccccc3)[C@]3(O)C[C@H](OC(=O)[C@H](O)[C@@H](NC(=O)c4ccccc4)c4ccccc4)C(C)=C1C3(C)C)[C@]1(OC(C)=O)CO[C@@H]1C[C@@H]2O [Paclitaxel, reference compound]	Not satisfied
C[C@H]1O[C@@H](O[C@H]2[C@@H](O)C[C@H](O[C@H]3[C@@H](O)C[C@H](O[C@H]4CC[C@@]5(C)[C@H](CC[C@@H]6[C@@H]5C[C@@H](O)[C@]5(C)[C@@H](C7=CC(=O)OC7)CC[C@]65O)C4)O[C@@H]3C)O[C@@H]2C)C[C@H](O)[C@@H]1O [Digoxin, reference compound]	Not satisfied
C[C@]12CCC(=NOCCN)C=C1CCC1C2CC[C@@]2(C)C1CC[C@@H]2O (some centres unmarked)	Not satisfied

Say whether its CC50 is strictly beneath 9 µM. Entry: C[C@]12CCC(=NOCCN)CC1CCC1C2CC[C@]2(C)C(=O)CCC12 (some centres unmarked)
Satisfied

Say whether its CC50 is strictly beneath 9 µM. Entry: C[C@@H]1O[C@@H](O[C@H]2C[C@@H](O)[C@]3(CO)[C@H]4[C@H](O)C[C@]5(C)[C@@H](C6=CC(=O)OC6)CC[C@]5(O)[C@@H]4CC[C@]3(O)C2)[C@H](O)[C@H](O)[C@H]1O [Ouabain, reference compound]
Not satisfied

Say whether its CC50 is strictly beneath 9 µM. Entry: C[C@]12CCC(=NOC3CCNC3)CC1CCC1C2CC[C@]2(C)C(=O)CCC12 (some centres unmarked)
Satisfied

Say whether its CC50 is strictly beneath 9 µM. Entry: C[C@]12CCC(=NOCCN)C=C1CCC1C2CC[C@]2(C)C(=O)CCC12 (some centres unmarked)
Not satisfied
